So I've got a bunch of compounds here, and I need their EC50 values.
- Experimental Target: human CB2 receptors (Homo sapiens (Human), UniProt P34972)
- Sequence (P34972 whole entry): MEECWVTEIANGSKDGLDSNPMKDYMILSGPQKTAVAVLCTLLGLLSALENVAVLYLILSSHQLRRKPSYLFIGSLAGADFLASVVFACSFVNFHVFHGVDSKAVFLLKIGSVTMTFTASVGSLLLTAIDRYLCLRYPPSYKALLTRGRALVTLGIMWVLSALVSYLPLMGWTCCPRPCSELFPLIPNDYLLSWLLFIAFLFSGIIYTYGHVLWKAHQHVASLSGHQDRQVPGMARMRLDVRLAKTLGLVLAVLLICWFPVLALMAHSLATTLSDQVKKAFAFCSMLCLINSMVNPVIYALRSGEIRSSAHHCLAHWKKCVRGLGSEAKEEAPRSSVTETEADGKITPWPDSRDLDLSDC
- Assay Text: cAMP assay, CHO cells expressing human CB2 receptors
- Type: cell-based
- Assay Conditions: functional cAMP assay, CHO cells expressing human CB2; read-out: EC50 CB2 human
Write the numeric value and follow it with the unit.

Use the examples below as a reference point.
CC(C)(C)c1nc(-c2cc(OCC3CC3)c(S(C)(=O)=O)cn2)no1 [Example 43]	40.9 nM
CC(C)(C)c1nc(-c2cc(OCC(F)(F)F)c(Cl)cn2)no1 [Example 70]	5.7 nM
c1c(-c2nc(C3CC3)no2)ncc(C2CC2)c1OCC1CC1 [Example 3]	1.2 nM
CC(CN1CCCCC1)Oc1cc(-c2noc(C(C)(C)C)n2)ncc1C1CC1 (stereo not drawn) [Example 96]	75.9 nM
CC(C)(C)c1nc(-c2cc(Oc3ccc(F)cc3)c(C3CC3)cn2)no1 [Example 61]	6.2 nM
CCC1COC(c2cc(OCC3CC3)c(C3CC3)cn2)=N1 (stereo not drawn) [Example 21]	70 nM

Consider the following items and state reported EC50 for each.
1. CCOCCOc1cc(-c2noc(C(C)(C)C)n2)ncc1C1CC1 [Example 83]
2. CC(C)(C)c1nc(-c2cc(OCC(F)(F)F)c(S(C)(=O)=O)cn2)no1 [Example 67]
3. CC(C)(C)c1nc(-c2cc(N3CC(F)(F)C(F)(F)C3)c(C3CC3)cn2)no1 [Example 74]

[out]
1. 30.1 nM
2. 434 nM
3. 4.7 nM

====

- Experimental Target: UniProt P21554
- Sequence (P21554 whole entry): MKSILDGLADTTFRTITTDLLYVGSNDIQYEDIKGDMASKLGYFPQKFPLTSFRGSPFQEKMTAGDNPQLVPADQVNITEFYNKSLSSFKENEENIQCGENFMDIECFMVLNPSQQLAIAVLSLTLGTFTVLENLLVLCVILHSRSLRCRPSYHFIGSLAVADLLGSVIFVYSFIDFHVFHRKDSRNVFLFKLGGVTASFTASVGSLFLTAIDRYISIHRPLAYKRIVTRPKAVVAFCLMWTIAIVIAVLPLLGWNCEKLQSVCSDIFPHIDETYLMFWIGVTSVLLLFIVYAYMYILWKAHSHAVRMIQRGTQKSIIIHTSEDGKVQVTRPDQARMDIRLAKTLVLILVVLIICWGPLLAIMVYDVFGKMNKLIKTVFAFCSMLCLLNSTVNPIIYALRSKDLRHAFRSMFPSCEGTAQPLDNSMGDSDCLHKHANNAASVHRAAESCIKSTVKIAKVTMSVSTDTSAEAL
- Assay Text: cAMP assay, CHO cells expressing human CB1 receptors
- Format: cell-based
- Assay Conditions: functional cAMP assay, CHO cells expressing human CB1; read-out: EC50 CB1 human
pEC50: −log10 of the molar value.
Quantity Name: pEC50

Use the examples below as a reference point.
CC(C)(C)c1nc(-c2cc(N3CCC4(COC4)C3)c(C3CC3)cn2)no1	< 5.00
FC(F)(F)COc1cc(-c2nc(C(F)(F)F)no2)ncc1C1CC1	< 5.00
CC(C)(C)c1noc(-c2cc(OCC(F)F)c(C3CC3)cn2)n1	< 5.00
CC(C)(C)c1cnc(-c2cc(OCC3CC3)c(C3CC3)cn2)o1	6.77
CC(C)c1nc(-c2cc(OCC(F)(F)F)c(N3CC(F)(F)C3)cn2)no1	< 5.00
C[C@H](Oc1cc(-c2nnc(C(C)(C)C)o2)ncc1C1CC1)C(F)(F)F	< 5.00

Consider the following items and state reported pEC50 for each.
1. FC(F)(F)COc1cc(-c2ncon2)ncc1C1CC1
2. CCOCCOc1cc(-c2noc(C(C)(C)C)n2)ncc1C1CC1
3. CC(C)(C)c1nc(-c2cc(OC3CCOC3)c(C3CC3)cn2)no1 (stereo not shown)

[out]
1: < 5.00; 2: < 5.00; 3: < 5.00

Consider the following items and state reported pEC50 for each.
1. CC(C)(C)c1nc(-c2cc(OC3CCOCC3)c(C3(F)COC3)cn2)no1
2. CC1(c2nc(-c3cc(OCC4CC4)c(C4CC4)cn3)no2)COC1
3. CC(C)(C)c1nc(-c2cc(OCCN3CCCCC3)c(C3CC3)cn2)no1
4. CC(C)(C)c1nc(-c2cc(OCC3CCCO3)c(C3CC3)cn2)no1 (stereo not shown)
5. CC(C)(C)c1noc(-c2cc(OCC(F)(F)F)c(C3CC3)cn2)n1
6. CC(C)(C)[C@H]1COC(c2cc(OCC3CC3)c(C3CC3)cn2)=N1
7. CC(C)(C)c1nnc(-c2cc(OC3CCOCC3)c(C3CC3)cn2)o1

[out]
1: < 5.00; 2: < 5.00; 3: < 5.00; 4: < 5.00; 5: < 5.00; 6: < 5.00; 7: < 5.00

Consider the following items and state reported pEC50 for each.
1. CC(C)(C)c1noc(-c2cc(OCC3CC3)c(C3CC3)cn2)n1
2. CCN1CCC(Oc2cc(-c3noc(C(C)(C)C)n3)ncc2C2CC2)C1 (stereo not shown)

[out]
1: 8.04; 2: 6.11

[in] Which measured pEC50 value corresponds to CC(C)C1(C)N=C(c2cc(OCC(F)(F)F)c(C3CC3)cn2)NC1=O (stereo not shown) ?
[out] < 5.00

====

- Experimental Target: human CB2 receptors (Homo sapiens (Human))
- Assay Text: cAMP assay, CHO cells expressing human CB2 receptors
- Type: cell-based
- Assay Conditions: functional cAMP assay, CHO cells expressing human CB2; read-out: EC50 CB2 human
pEC50: −log10 of the molar value.
Everything with pEC50 lower than 8 is No; everything else, including exactly 8, is Yes.

Solved cases (10 shown):
OC1(c2nc(-c3cc(OCC4CC4)c(C4CC4)cn3)no2)CC1	No
CC(C)(C)c1nc(-c2cc(OC3CCOC3)c(C3CC3)cn2)no1 (stereo not drawn)	No
CC(C)(C)c1nc(-c2cc(N3CCOCC3)c(C3CC3)cn2)no1	No
CC1(c2nc(-c3cc(OCC4CC4)c(C4CC4)cn3)no2)CC1	Yes
Cc1cc(COc2cc(-c3noc(C(C)(C)C)n3)ncc2C2CC2)no1	No
CCC1(CC)COC(c2cc(OCC3CC3)c(C3CC3)cn2)=N1	Yes
CC(C)(C)c1nc(-c2cc(OCc3cccnc3)c(C3CC3)cn2)no1	No
OC1(c2nc(-c3cc(OCC(F)(F)F)c(C4CC4)cn3)no2)CC1	No
CC(C)c1nc(-c2cc(OCC3CC3)c(C3CC3)cn2)no1	Yes
CCN(CC)CC(C)Oc1cc(-c2noc(C(C)(C)C)n2)ncc1C1CC1 (stereo not drawn)	No

[in] Check the entry CC(C)(C)c1nc(-c2cc(Oc3ccc(F)cc3)c(C3(F)COC3)cn2)no1 : does pEC50 equal or exceed 8?
[out] No

[in] Check the entry CCN1CCC(Oc2cc(-c3noc(C(C)(C)C)n3)ncc2C2CC2)C1 (stereo not drawn) : does pEC50 equal or exceed 8?
[out] No

[in] Check the entry CCN1CCCC(Oc2cc(-c3noc(C(C)(C)C)n3)ncc2C2CC2)C1 (stereo not drawn) : does pEC50 equal or exceed 8?
[out] No

[in] Check the entry CC(C)(C)c1nc(-c2cc(OCCN3CCCC3)c(C3CC3)cn2)no1 : does pEC50 equal or exceed 8?
[out] No

[in] Check the entry C[C@@H](Oc1cc(-c2nc(C(C)(C)C)no2)ncc1C1CC1)C(F)(F)F : does pEC50 equal or exceed 8?
[out] No

[in] Check the entry Cc1nc(C2(C)COC(c3cc(OCC(F)(F)F)c(C4CC4)cn3)=N2)no1 (stereo not drawn) : does pEC50 equal or exceed 8?
[out] No

[in] Check the entry CC1(c2nc(-c3cc(OCC(F)(F)F)c(N4CC(F)(F)C4)cn3)no2)CC1 : does pEC50 equal or exceed 8?
[out] No

====

So I've got a bunch of molecules here, and I need their EC50 values.
- Experimental Target: human CB2 receptors (Homo sapiens (Human), UniProt P34972)
- Assay Text: cAMP assay, CHO cells expressing human CB2 receptors
- Assay type: cell-based
- Assay Conditions: functional cAMP assay, CHO cells expressing human CB2; read-out: EC50 CB2 human
Give bare numbers, in µM.

NC1(c2nc(-c3cc(OCC4CC4)c(C4CC4)cn3)no2)COC1	0.448
COCC(C)Oc1cc(-c2noc(C(C)(C)C)n2)ncc1C1CC1 (stereo not drawn)	0.113

Consider the following items and state reported EC50 for each.
1. CC(C)(C)c1nc(-c2cc(Oc3ccc(S(C)(=O)=O)cc3)c(C3CC3)cn2)no1
2. CC(C)(C)c1nc(-c2cc(OCCN3CCOCC3)c(C3CC3)cn2)no1
3. CC(C)(C)c1nc(-c2cc(OCC3CCCO3)c(C3CC3)cn2)no1 (stereo not drawn)
4. c1c(-c2nc(C3CCCC3)no2)ncc(C2CC2)c1OCC1CC1
5. c1c(-c2noc(C3CNC3)n2)ncc(C2CC2)c1OCC1CC1
6. CC(C)C1(C)N=C(c2cc(OCC(F)(F)F)c(C3CC3)cn2)NC1=O (stereo not drawn)

[out]
1: 0.288; 2: 0.0289; 3: 0.0447; 4: 0.0021; 5: 0.797; 6: 0.009

[in] Which measured EC50 value corresponds to CC(C)c1nc(-c2cc(OCC(F)(F)F)c(C3CC3)cn2)no1 ?
[out] 0.0209

====

- Experimental Target: UniProtKB P21554
- Assay Text: cAMP assay, CHO cells expressing human CB1 receptors
- Type: cell-based
So I've got a bunch of compounds here, and I need their EC50 values.

CC(C)(C)c1nc(-c2cc(OCC(F)(F)F)c(C3CC3)cn2)no1	> 10 µM

Lab note: next compound to report on.
[in] Which measured EC50 value corresponds to c1c(-c2noc(C3CC3)n2)ncc(C2CC2)c1OCC1CC1 ?
[out] > 10 µM
